B1: Transcription factor SOX-11, residues 50 to 117; numbered along this chain, P35716 (parent)
chain: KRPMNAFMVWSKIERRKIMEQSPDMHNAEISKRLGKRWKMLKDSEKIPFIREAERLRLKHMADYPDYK

Variants of: B1
ASSAY_NOTES: abundance fitness (aPCA) (normalised: wild type 0, dead -1); higher = more abundant; growth selection in yeast, the domain comes from the species named
TEST_CONTEXT: Homo sapiens
MEASUREMENT_TYPE: abundance fitness
I only need the number, thanks.

Observe how each entry below is paired with its result.
INSERT INTO results (sequence_change, measurement_type, endpoint_result) VALUES
  ('K42P', 'abundance fitness', 0.021),
  ('K32T', 'abundance fitness', -0.308),
  ('S31K', 'abundance fitness', -0.096);

Next:
Entry A28R — recorded abundance fitness = -0.266
